Where do the numbers come from? From patent US20230271969A1.

System: Senktide-induced bilateral ovariectomy rats
Test: Tail skin temperature in a Senktide-induced bilateral ovariectomy rat model
Format: in vivo
Conditions: OVX SD rats, oral 30 mg/kg, 30 min before s.c. Senktide, tail skin temperature over 75 min
Quick list: AUCΔTST per entry.
Answer format: numeric, °C · min implied, no suffix.

Some molecules with known AUCΔTST results, for comparison:
>>> df
                               given_smiles  value
0  C[C@@H]1c2nnc(-c3nc4ccccc4s3)n2CCN1C(=O)c1ccc(Cl)cc1   81.3
1  [2H]c1c([2H])c(C(=O)N2CCn3c(-c4nc5ccccc5s4)nnc3[C@H]2C)c([2H])c([2H])c1F   71.3

May I ask what AUCΔTST has been recorded for [2H]c1cc(C(=O)N2CCn3c(-c4nc(Cl)ns4)nnc3[C@H]2C)ccc1F ? 53.8

Please give the result for Cc1nsc(-c2nnc3n2CCN(C(=O)c2ccc(F)cc2)[C@@H]3C)n1 too. 116.7

----------
Tmax values for the compounds below.
Experiment: Pharmacokinetic assay in SD rats (plasma and brain tissue)
Assay type: in vivo
Conditions: rat, po; Brain, male SD rats, p.o. 5 mg/kg; read-out: Peak time tmax
// return the numeric value with its unit appended

Solved entries (count: 3):
In [3]: df
Out[3]:
                               given_smiles  value
0  C[C@@H]1c2nnc(-c3nc4cnc(Cl)cc4s3)n2CCN1C(=O)c1ccc(F)cc1    4 h
1  [2H]c1cc(C(=O)N2CCn3c(-c4nc(Cl)ns4)nnc3[C@H]2C)ccc1F    1 h
2  C[C@@H]1c2nnc(-c3nc4cc(F)c(F)cc4s3)n2CCN1C(=O)c1ccc(F)cc1    4 h

What does the record list as Tmax for C[C@@H]1c2nnc(-c3nc(Cl)ns3)n2CCN1C(=O)c1ccc(Cl)cc1 ? 1 h

----------
Target: NK3 receptors (Homo sapiens, UniProt P29371)
Construct: expressed in transfected cells
Sequence (P29371 1-465): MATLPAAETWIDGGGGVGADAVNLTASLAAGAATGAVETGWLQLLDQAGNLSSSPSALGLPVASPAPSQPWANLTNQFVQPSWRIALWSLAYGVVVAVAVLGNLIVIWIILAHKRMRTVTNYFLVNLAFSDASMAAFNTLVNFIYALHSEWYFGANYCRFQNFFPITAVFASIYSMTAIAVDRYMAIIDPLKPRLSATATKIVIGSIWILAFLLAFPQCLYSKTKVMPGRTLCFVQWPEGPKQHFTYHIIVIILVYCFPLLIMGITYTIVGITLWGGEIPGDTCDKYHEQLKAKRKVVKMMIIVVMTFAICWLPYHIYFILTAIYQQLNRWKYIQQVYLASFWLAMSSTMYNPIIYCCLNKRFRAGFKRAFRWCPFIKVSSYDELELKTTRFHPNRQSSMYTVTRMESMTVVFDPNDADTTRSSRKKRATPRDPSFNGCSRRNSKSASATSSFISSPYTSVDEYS
Assay: Antagonism of IP1 in HEK293 cells with stable expression of NK3
Assay type: cell-based
Conditions: agonist Senktide 3 nM, read-out: NK3R IC50 (nM) IP1
Assign labels as follows, please: criterion met for IC50 below 90 nM; criterion not met for IC50 equal to or exceeding 90 nM.

Example entries begin here.
                               given_smiles     discrete_label
0  [2H]c1cc(C(=O)N2CCn3c(-c4nc(N5CC(F)C5)cs4)nnc3[C@H]2C)ccc1F  criterion not met
1  C[C@@H]1c2nnc(-c3nc4cc(F)ccc4s3)n2CCN1C(=O)c1ccc(F)cc1      criterion met
2  C[C@@H]1c2nnc(-c3nc4cnc(Cl)cc4s3)n2CCN1C(=O)c1ccc(Cl)cc1  criterion not met

Please turn your attention to the following entry.
Does the reported IC50 of the following compound sit strictly below 90 nM? C[C@@H]1c2nnc(-c3nc4ccc(Cl)cc4s3)n2CCN1C(=O)c1ccc(F)cc1 criterion met
